src = PubChem BioAssay AID1963853

Test system: 266295-075-R-J1-PDC spheroid viability;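 further: spheroids exposed to compounds for seven days before readout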
Assay: Anticancer human tumor 266295-075-R-J1-PDC patient-derived head and neck squamous carcinoma cell line growth inhibition [POLQ]
Conditions: second compound 0.0316 µM; first compound 0.000316 µM; stronger effect = lower value; spheroids with HUVEC and MSC
Recorded viability, T/C values for a group of compounds are listed next.
readout_type: viability, T/C (%)

INSERT INTO assay_data (compound, meas_value) VALUES
  ('CC[C@@]1(O)C(=O)OCc2c1cc1n(c2=O)Cc2cc3c(CN(C)C)c(O)ccc3nc2-1 + Nc1ccc(C#CCN(C(=O)Cc2ncc(C(F)(F)F)cc2C(F)(F)F)c2ccc(F)cc2)nn1', 98.9),
  ('Cn1ncnc1[C@H]1c2n[nH]c(=O)c3cc(F)cc(c23)N[C@@H]1c1ccc(F)cc1 + COC1C(OC(N)=O)C(O)C(Oc2ccc3c(O)c(NC(=O)c4ccc(O)c(CC=C(C)C)c4)c(=O)oc3c2C)OC1(C)C', 85),
  ('Cn1ncnc1[C@H]1c2n[nH]c(=O)c3cc(F)cc(c23)N[C@@H]1c1ccc(F)cc1 + Cc1cccc(N(C)C(=O)C2C(O)CCN2c2nc(C)cc(C(F)(F)F)c2C#N)c1', 88.2);
